# assay_system: catalytic domain of human Bub1 (amino acids 704-1085) (Homo sapiens, UniProt O43683)
# Construct: catalytic domain of human Bub1 (amino acids 704-1085); His6 (N); made in house; host or cells: Hi5 insect cells
# test_details: Bub1 kinase assay (TR-FRET)
# Type: biochemical
# assay_context: 10 μM ATP, 60 min reaction, pH 7.5; read-out: Biological Assay 1: Bub1 kinase assay median IC50
# Method: To this end, 100-fold concentrated compound solutions (in DMSO) were previously prepared by serial dilution (1:3.4) of 2 mM stocks in a clear low volume 384-well source microtiter plate (Greiner Bio-One, Frickenhausen, Germany), from which 50 nL of compounds were transferred into a black low volume test microtiter plate from the same supplier. […]
parameter_measured: IC50 (nM)
Write it as a number; the unit nM goes unstated.

INSERT INTO measurements (molecule, assay_system, measured) VALUES
  ('COc1cnccc1Nc1nc(-c2nn(Cc3c(F)cc(OCCCO)cc3F)c3ccccc23)ncc1OC', 'catalytic domain of human Bub1 (amino acids 704-1085) (Homo sapiens, UniProt O43683)', 10),
  ('COc1cnc(-c2nn(Cc3c(F)cc(OCCO)cc3F)c3ccccc23)nc1Nc1ccnc(C(F)F)c1', 'catalytic domain of human Bub1 (amino acids 704-1085) (Homo sapiens, UniProt O43683)', 23),
  ('COc1cnc(-c2nn(Cc3c(F)cc(OCCO)cc3F)c3ccccc23)nc1Nc1ccncn1', 'catalytic domain of human Bub1 (amino acids 704-1085) (Homo sapiens, UniProt O43683)', 5),
  ('COc1cnc(-c2nn(Cc3c(F)cc(OCCO)cc3F)c3ccccc23)nc1Nc1ccnc(NC(=O)NC2CC2)c1', 'catalytic domain of human Bub1 (amino acids 704-1085) (Homo sapiens, UniProt O43683)', 17),
  ('COc1cnccc1Nc1nc(-c2nn(Cc3c(F)cc(OC[C@H](C)CO)cc3F)c3ccccc23)ncc1OC', 'catalytic domain of human Bub1 (amino acids 704-1085) (Homo sapiens, UniProt O43683)', 28);

Prompt: Fill blank: measured IC50 of the molecule "COc1cnc(-c2nn(Cc3c(F)cc(OCCO)cc3F)c3ccccc23)nc1Nc1ccnc(F)c1" is ____.
Response: 19

Prompt: Fill blank: measured IC50 of the molecule "COc1cnc(-c2nn(Cc3c(F)cc(OCCO)cc3F)c3ccccc23)nc1Nc1cc(C)ncc1F" is ____.
Response: 33

Prompt: Fill blank: measured IC50 of the molecule "COc1cnc(-c2nn(Cc3c(F)cc(OCCO)cc3F)c3ccccc23)nc1Nc1cc(NC(C)=O)ncc1C" is ____.
Response: 420

Prompt: Fill blank: measured IC50 of the molecule "COc1cnc(-c2nn(Cc3c(F)cc(OC[C@H](C)CO)cc3F)c3ccccc23)nc1Nc1cc(C)ncc1C" is ____.
Response: 58

Prompt: Fill blank: measured IC50 of the molecule "COc1cnccc1Nc1nc(-c2nn(Cc3c(F)cc(OCCO)cc3F)c3ccccc23)ncc1OC" is ____.
Response: 7.1

----------
# assay_system: catalytic domain of human Bub1 (amino acids 704-1085) (Homo sapiens, UniProt O43683)
# Construct: catalytic domain of human Bub1 (amino acids 704-1085); His6 (N); made in house; host or cells: Hi5 insect cells
# test_details: Equilibrium probe competition assay (TR-FRET kinase binding assay)
# assay_context: Time 60 min; read-out: Assay 5 IC50
parameter_measured: IC50 (nM)
Write it as a number; the unit nM goes unstated.

INSERT INTO assay_data (chemical_smiles, measured) VALUES
  ('COc1cnccc1Nc1nc(-c2nn(Cc3c(F)cc(OCCO)cc3F)c3ccccc23)ncc1OC', 0.9),
  ('COc1cnc(-c2nn(Cc3c(F)cc(OCCO)cc3F)c3ccccc23)nc1Nc1ccnc(C)c1', 2.2);

Prompt: Fill blank: measured IC50 of the compound "COc1cnc(-c2nn(Cc3c(F)cc(OCCOC(=O)[C@H](C)NC(=O)[C@@H](N)CCCCN)cc3F)c3ccccc23)nc1Nc1ccnc(C)c1" is ____.
Response: 12

Prompt: Fill blank: measured IC50 of the compound "COc1cnccc1Nc1nc(-c2nn(Cc3c(F)cc(OCCOC(=O)[C@H](C)NC(=O)[C@@H](N)CCCCN)cc3F)c3ccccc23)ncc1OC" is ____.
Response: 2.2
